# TARGET_OR_SYSTEM: Bek (Homo sapiens, UniProt P21802)
# Sequence (P21802 431-767 limits assumed): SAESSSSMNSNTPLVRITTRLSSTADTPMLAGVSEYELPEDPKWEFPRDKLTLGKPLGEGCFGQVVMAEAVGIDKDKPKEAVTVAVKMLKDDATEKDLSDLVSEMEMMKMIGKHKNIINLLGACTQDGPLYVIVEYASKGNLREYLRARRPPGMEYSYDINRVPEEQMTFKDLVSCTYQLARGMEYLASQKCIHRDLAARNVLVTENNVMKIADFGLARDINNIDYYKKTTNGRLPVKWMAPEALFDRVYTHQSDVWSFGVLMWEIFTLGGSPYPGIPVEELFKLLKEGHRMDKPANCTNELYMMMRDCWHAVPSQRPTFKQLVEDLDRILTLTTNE
# ASSAY_PROCEDURE: Inhibitory activity against Bek-autophosphorylation using ELISA method in OCUM-2MD3 cells
# ASSAY_CONTEXT: 1 hr with compound, read-out: IC50 (concentration necessary for inhibiting 50% of Bek-phosphorylation)
ENDPOINT_NAME: IC50 (nM)

Worked cases, IC50 given:
MOLECULE: COc1cc2nccc(Oc3ccc(Nc4ccc(C(C)(C)C)cc4)cc3)c2cc1OC
ENDPOINT_NAME: IC50
READING: 321

MOLECULE: CCC(CO)(CO)NCCOc1cc2nccc(Oc3ccc(NC(=O)NCCC(C)(C)C)cc3)c2cc1OC
ENDPOINT_NAME: IC50
READING: 38.4

(I) COc1cc2c(Oc3ccc(Nc4ccc(C(C)(C)C)cc4)cc3F)ccnc2cc1OCCN1CCC(O)CC1
(II) COc1cc2c(Oc3ccc(NC(=O)NCCC(C)(C)C)cc3)ccnc2cc1OCCCN(C)CCO
(III) COc1cc2nccc(Oc3ccc(NC(=O)NC4CC(C)CC(C)(C)C4)c(F)c3)c2cc1OC (centres unmarked)
(IV) COc1cc2c(Oc3ccc(Nc4ccc(C(C)(C)C)cc4)cc3)ccnc2cc1OC[C@@H](O)CN1CCOCC1
(V) CCN(CC)CCOc1cc2nccc(Oc3ccc(Nc4ccc(C(C)(C)C)cc4)cc3)c2cc1OC
Ask: Highest IC50 first, then in falling order down to the smallest. Answer format: the labels, in the requested order.
Reply: V, I, IV, II, III
(V: 480 nM, I: 247 nM, IV: 61.1 nM, II: 35.6 nM, III: 19.7 nM)

Sourced from patent US7495104B2
